- Test system: Abeta 40
- Test protocol: In vivo inhibition of beta-secretase: Abeta 40 reduction in CSF and brain of the rat
- Measurement setup: Abeta 40 in CSF of the rat, 10 mpk (unless otherwise noted), after 4 hrs; read-out: % reduction of rat CSF levels at 10 pmk
In this section we review reported inhibition in vivo at 10 mg/kg values for a set of compounds.
Number in %, nothing else.

Look over these answered cases.
[
  {
    "Compound": "C[C@H]1C[C@@H]2[C@](C)(N=C(N)C(C)(C)S2(=O)=O)c2cc(Nc3nccc4nc(OCc5ncco5)cnc34)ccc2O1 [Example 138]",
    "inhibition in vivo at 10 mg/kg / %": 46
  },
  {
    "Compound": "C[C@H]1C[C@@H]2[C@](C)(N=C(N)C(C)(C)S2(=O)=O)c2cc(Nc3nccc4cc(C#N)cnc34)ccc2O1 [Example 56]",
    "inhibition in vivo at 10 mg/kg / %": 70
  },
  {
    "Compound": "C#CCOc1cnc2c(Nc3ccc4c(c3)[C@@]3(C)N=C(N)C(C)(C)S(=O)(=O)[C@@H]3C[C@H](C)O4)nccc2n1 [Example 140]",
    "inhibition in vivo at 10 mg/kg / %": 71
  },
  {
    "Compound": "C[C@H]1C[C@@H]2[C@](C)(N=C(N)C(C)(C)S2(=O)=O)c2cc(NC(=O)c3ccc(Cl)cn3)ccc2O1 [Example 85]",
    "inhibition in vivo at 10 mg/kg / %": 79
  },
  {
    "Compound": "CC1(C)C[C@@H]2[C@](C)(N=C(N)C(C)(C)S2(=O)=O)c2cc(Nc3ncnc4cc(C(F)(F)F)cnc34)ccc2O1 [Example 106]",
    "inhibition in vivo at 10 mg/kg / %": 36
  }
]

[in] Query inhibition in vivo at 10 mg/kg on Abeta 40 for C[C@H]1C[C@@H]2[C@](C)(N=C(N)C(C)(C)S2(=O)=O)c2cc(NC(=O)c3ccc(C#N)cn3)ccc2O1 [Example 86]
[out] 79

[in] Also check C[C@H]1C[C@@H]2[C@](C)(N=C(N)C(C)(C)S2(=O)=O)c2cc(Nc3ncnc4cc(C(F)(F)F)cnc34)ccc2O1 [Example 133]
[out] 63

[in] Also check Cc1cc(C(F)(F)F)cnc1C(=O)Nc1ccc2c(c1)[C@@]1(C)N=C(N)C(C)(C)S(=O)(=O)[C@@H]1C[C@H](C)O2 [Example 54]
[out] 76

[in] Also check C[C@H]1C[C@@H]2[C@](C)(N=C(N)C(C)(C)S2(=O)=O)c2cc(NC(=O)c3ncc(Cl)cc3Cl)ccc2O1 [Example 129]
[out] 21

[in] Also check CC1(C)C[C@@H]2[C@](C)(N=C(N)C(C)(C)S2(=O)=O)c2cc(NC(=O)c3ncc(C(F)(F)F)cc3Cl)ccc2O1 [Example 127]
[out] 37

----------
- Subject of test: Cathepsin D (Cat D) (Homo sapiens)
- Sequence (P07339 65-412, species assumed): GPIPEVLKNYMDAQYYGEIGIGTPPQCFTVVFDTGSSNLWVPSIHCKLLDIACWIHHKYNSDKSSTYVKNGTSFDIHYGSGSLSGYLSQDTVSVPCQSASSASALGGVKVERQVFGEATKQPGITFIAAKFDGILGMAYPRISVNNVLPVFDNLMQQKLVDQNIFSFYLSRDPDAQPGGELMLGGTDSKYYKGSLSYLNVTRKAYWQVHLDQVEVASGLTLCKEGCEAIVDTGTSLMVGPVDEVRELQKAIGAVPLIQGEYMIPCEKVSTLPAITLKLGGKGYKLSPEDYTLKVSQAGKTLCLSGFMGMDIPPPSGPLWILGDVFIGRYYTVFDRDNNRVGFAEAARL
- Test protocol: In vitro enzymatic Cathepsin D (Cat D) FRET assay
- Assay type: biochemical
- Measurement setup: read-out: CatD IC50
Quantity measured: pIC50
Notebook: values listed as pIC50 are -log10 of the concentration (mol/L).

Look over these answered cases.
[
  {
    "Smiles input": "CC1(C)C(N)=N[C@]2(C)c3cc(NC(=O)c4ncc(C#N)cc4Cl)ccc3OCC[C@H]2S1(=O)=O",
    "Subject of test": "Cathepsin D (Cat D) (Homo sapiens)",
    "Quantity measured": "pIC50",
    "Obs value": 2.97
  },
  {
    "Smiles input": "CC1(C)C(N)=N[C@]2(C)c3cc(NC(=O)c4ccc(C5CC5)cn4)ccc3OCC[C@H]2S1(=O)=O",
    "Subject of test": "Cathepsin D (Cat D) (Homo sapiens)",
    "Quantity measured": "pIC50",
    "Obs value": 3.15
  },
  {
    "Smiles input": "Cc1cc(Cl)cnc1C(=O)Nc1ccc2c(c1)[C@@]1(C)N=C(N)C(C)(C)S(=O)(=O)[C@@H]1CC(C)(C)O2",
    "Subject of test": "Cathepsin D (Cat D) (Homo sapiens)",
    "Quantity measured": "pIC50",
    "Obs value": 3.36
  }
]

[in] Would you mind telling me what pIC50 value was observed for CC1(C)C(N)=N[C@]2(C)c3cc(Nc4ncnc5cc(OCC6CC6)cnc45)ccc3OCC[C@H]2S1(=O)=O ?
[out] 3.42
